Cited source for all entries: patent US6323185

target: HIV-1 integrase wild-type (IN1-288) (HIV-1, UniProt P12497 P12497:1148-1435); assay: inhibition; 3'-processing (+/-26); strand transfer 134 nM; conditions: G4
pIC50: −log10 of the molar value.
Measurement name: pIC50

| Binder | Endpoint result |
| --- | --- |
| GTGGTGGGTGTGGTGGGT (ssDNA, PS at first and last linkages) [T30676] | 6.83 |
